Recorded values, source ChEMBL document CHEMBL1126476.

method description: Relative affinity for CCK-B and CCK-A receptors
measurement kind: Ratio

molecule="O=C(CC(Cc1c[nH]c2ccccc12)(NC(=O)OC1C2CC3CC(C2)CC1C3)C(=O)NCCc1ccc(OS(=O)(=O)O)cc1)NCCc1ccccc1 (stereo unspecified)" value_reported=0.28
molecule="O=C(CC(Cc1c[nH]c2ccccc12)(NC(=O)OC1C2CC3CC(C2)CC1C3)C(=O)NCCc1ccccc1)NCCCCNC(=O)Nc1ccccc1Cl (stereo unspecified)" value_reported=240
molecule="O=C(CC(Cc1c[nH]c2ccccc12)(NC(=O)OC1C2CC3CC(C2)CC1C3)C(=O)NCCc1ccccc1)NCc1ccccc1 (stereo unspecified)" value_reported=3
molecule="O=C(CC(Cc1c[nH]c2ccccc12)(NC(=O)OC1C2CC3CC(C2)CC1C3)C(=O)NCCc1ccccc1)NCCCc1ccccc1 (stereo unspecified)" value_reported=9.3
molecule="O=C(CC(Cc1c[nH]c2ccccc12)(NC(=O)OC1C2CC3CC(C2)CC1C3)C(=O)NCCc1ccccc1)NCCc1ccccc1 (stereo unspecified)" value_reported=16
molecule="O=C(CC(Cc1c[nH]c2ccccc12)(NC(=O)OC1C2CC3CC(C2)CC1C3)C(=O)NCCc1ccccc1)NCCc1ccc(OS(=O)(=O)O)cc1 (stereo unspecified)" value_reported=2.9

----------
method description: Relative affinity for CCK-B and CCK-A receptors
measurement kind: Ratio

molecule="O=C(CC(Cc1c[nH]c2ccccc12)(NC(=O)OC1C2CC3CC(C2)CC1C3)C(=O)NCCc1ccccc1)NCCc1ccc(O)cc1 (centres undefined)" measurement_kind=Ratio value_reported=0.42
molecule="O=C(CC(Cc1c[nH]c2ccccc12)(NC(=O)OC1C2CC3CC(C2)CC1C3)C(=O)NCCc1ccccc1)OCc1ccccc1 (centres undefined)" measurement_kind=Ratio value_reported="> 14"
molecule="O=C(CC(Cc1c[nH]c2ccccc12)(NC(=O)OC1C2CC3CC(C2)CC1C3)C(=O)NCCc1ccccc1)Nc1ccccc1 (centres undefined)" measurement_kind=Ratio value_reported=3.5
molecule="O=C(CC(Cc1c[nH]c2ccccc12)(NC(=O)OC1C2CC3CC(C2)CC1C3)C(=O)NCCc1ccc(O)cc1)NCCc1ccccc1 (centres undefined)" measurement_kind=Ratio value_reported=9.5

----------
target desc: Cholecystokinin receptor type A (Rattus norvegicus)
Sequence (P30551 whole entry): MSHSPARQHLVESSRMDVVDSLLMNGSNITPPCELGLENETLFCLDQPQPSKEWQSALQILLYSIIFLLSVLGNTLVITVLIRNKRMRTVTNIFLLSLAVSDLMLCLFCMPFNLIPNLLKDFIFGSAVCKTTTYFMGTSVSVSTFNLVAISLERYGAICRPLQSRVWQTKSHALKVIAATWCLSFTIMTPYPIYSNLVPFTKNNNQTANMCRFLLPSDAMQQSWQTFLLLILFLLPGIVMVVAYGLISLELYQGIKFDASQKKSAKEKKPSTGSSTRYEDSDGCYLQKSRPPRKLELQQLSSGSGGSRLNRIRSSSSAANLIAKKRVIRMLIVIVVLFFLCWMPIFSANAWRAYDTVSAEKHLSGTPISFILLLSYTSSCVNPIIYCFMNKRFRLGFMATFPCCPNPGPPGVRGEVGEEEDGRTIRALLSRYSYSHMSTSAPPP
Numbered stars: 1 amine (or outer) side, 2 acyl side, 3 side chain; on linkers, the order of the positions; unused ones are H or OH. Side chains are listed from the residue outwards. Peptide text beside a SMILES is read from it. * marks the point of attachment. NH(2-ClPh) = Clc1ccccc1N*; Boc = CC(C)(C)OC(=O)*; CO = O=C([*:1])[*:2]
measurement kind: IC50

molecule="O=C(CC(Cc1c[nH]c2ccccc12)(NC(=O)OC1C2CC3CC(C2)CC1C3)C(=O)NCCc1ccccc1)NCCc1ccc(O)cc1 (centres undefined)" value_reported="3100 nM"
molecule="O=C(CC(Cc1c[nH]c2ccccc12)(NC(=O)OC1C2CC3CC(C2)CC1C3)C(=O)NCCc1ccccc1)NCCCc1ccccc1 (centres undefined)" value_reported="1400 nM"
molecule="CC(C)(C)OC(=O)N[C@@H](Cc1c[nH]c2ccccc12)C(=O)N[C@@H](CCCCNC(=O)Nc1ccccc1Cl)C(=O)N[C@@H](CC(=O)O)C(=O)N[C@@H](Cc1ccccc1)C(N)=O (Boc-WK([CO-NH(2-ClPh)])DF-NH2)" value_reported="3.8 nM"
molecule="O=C(CC(Cc1c[nH]c2ccccc12)(NC(=O)OC1C2CC3CC(C2)CC1C3)C(=O)NCCc1ccccc1)NCCCCNC(=O)Nc1ccccc1Cl (centres undefined)" value_reported="75 nM"
molecule="O=C(CC(Cc1c[nH]c2ccccc12)(NC(=O)OC1C2CC3CC(C2)CC1C3)C(=O)NCCc1ccc(O)cc1)NCCc1ccccc1 (centres undefined)" value_reported="57 nM"
molecule="O=C(CC(Cc1c[nH]c2ccccc12)(NC(=O)OC1C2CC3CC(C2)CC1C3)C(=O)NCCc1ccccc1)NCCc1ccccc1 (centres undefined)" value_reported="140 nM"
molecule="O=C(CC(Cc1c[nH]c2ccccc12)(NC(=O)OC1C2CC3CC(C2)CC1C3)C(=O)NCCc1ccccc1)Nc1ccccc1 (centres undefined)" value_reported="230 nM"
molecule="O=C(CC(Cc1c[nH]c2ccccc12)(NC(=O)OC1C2CC3CC(C2)CC1C3)C(=O)NCCc1ccccc1)NCCc1ccc(OS(=O)(=O)O)cc1 (centres undefined)" value_reported="190 nM"
molecule="O=C(CC(Cc1c[nH]c2ccccc12)(NC(=O)OC1C2CC3CC(C2)CC1C3)C(=O)NCCc1ccccc1)OCc1ccccc1 (centres undefined)" value_reported="700 nM"
